# System: blue-stain fungi and molds
# method: Activity against blue-stain fungi and molds in a stick test (threshold concentrations)
# conditionLabel: A. niger; minimum concentration to obtain score 0; beech sticks, 22° C., 90% relative humidity
parameterMeasured: Threshold concentration (ppm), A. niger, score 0

O=S1(=O)CCON=C1c1cccs1 [Compound 34] | 500
CCOC(=O)c1ccc(C2=NOCC[S+]2[O-])s1 (stereo not shown) [Compound 54] | 500
Cc1ccc2oc(C3=NOCC[S+]3[O-])nc2c1 (stereo not shown) [Compound 89] | 500
[O-][S+]1CCON=C1c1nc2ccccc2s1 (stereo not shown) [Compound 85] | 1000
N#Cc1ccc(C2=NOCCS2(=O)=O)s1 [Compound 58] | 500
[O-][S+]1CCON=C1c1nc2ccccc2o1 (stereo not shown) [Compound 81] | 500
[O-][S+]1CCON=C1c1cccs1 (stereo not shown) [Compound 8] | 1000
[O-][S+]1CCON=C1c1cc2ccccc2s1 (stereo not shown) [Compound 87] | 1000
CC1CS(=O)(=O)C(c2cccs2)=NO1 (stereo not shown) [Compound 51] | 500
N#Cc1ccc(C2=NOCC[S+]2[O-])s1 (stereo not shown) [Compound 57] | 500
[O-][S+]1CCON=C1c1ccc(Cl)s1 (stereo not shown) [Compound 60] | 500
CC1C[S+]([O-])C(c2cccs2)=NO1 (stereo not shown) [Compound 50] | 1000

----------
# System: Flavobacterium sp.
# method: Wood preservative efficacy against bacteria and yeasts, tryptose agar plates
# Format: cell-based
# Parameters: key: 0 = growth equal to control, 1 = growth inhibited, 2 = no growth
# conditionLabel: 100 ppm in tryptose agar
parameterMeasured: Score of bactericidal activity, Flavobacter

CCOC(=O)c1ccc(C2=NOCC[S+]2[O-])cc1 (stereo not drawn) | 2
CC(=O)c1ccc(C2=NOCC[S+]2[O-])cc1 (stereo not drawn) | 2
C[S+]1CCON=C1c1c(Cl)cccc1Cl (stereo not drawn) | 0
C[S+]1CCON=C1c1cccc(C(F)(F)F)c1 (stereo not drawn) | 2
CCOc1ccc(C2=NOCC[S+]2C)cc1 (stereo not drawn) | 2
C[S+]1CCON=C1c1ccc(C(F)(F)F)cc1 (stereo not drawn) | 2

----------
The following compounds are shown together with reported MIC (ppm) against P. violacea values.
# Tested on: molds and blue-stain fungi
# method: In vitro activity against molds and blue-stain fungi, poison plate assay (MIC)
# Assay type: cell-based
# conditionLabel: P. violacea, malt extract agar, complete inhibition
parameterMeasured: MIC (ppm) against P. violacea

N#Cc1ccc(C2=NOCC[S+]2[O-])s1 (centres unmarked) [Compound 57] | 25 ppm
[O-][S+]1CCON=C1c1cccs1 (centres unmarked) [Compound 8] | 25 ppm
O=S1(=O)CCON=C1c1cccs1 [Compound 34] | 25 ppm
[O-][S+]1CCON=C1c1ccc(Cl)c(Cl)c1 (centres unmarked) [Compound 4] | 25 ppm
[O-][S+]1CCON=C1c1cc2ccccc2s1 (centres unmarked) [Compound 87] | 10 ppm
[O-][S+]1CCON=C1c1ccc(Cl)s1 (centres unmarked) [Compound 60] | 10 ppm
C[S+]1CCON=C1c1cc(Cl)cc(Cl)c1 (centres unmarked) [Compound 19] | >25 ppm
N#Cc1ccc(C2=NOCCS2(=O)=O)s1 [Compound 58] | 25 ppm

----------
# Test system: molds and blue-stain fungi
# method: In vitro activity against molds and blue-stain fungi, poison plate assay (MIC)
# Type: cell-based
# conditionLabel: P. purpurogenum, malt extract agar, complete inhibition
parameterMeasured: MIC (ppm) against P. purpurogenum

C[S+]1CCON=C1c1cc(Cl)cc(Cl)c1 (centres unmarked) [Compound 19] | 25
O=S1(=O)CCON=C1c1cccs1 [Compound 34] | 10
[O-][S+]1CCON=C1c1ccc(Cl)c(Cl)c1 (centres unmarked) [Compound 4] | 10
N#Cc1ccc(C2=NOCC[S+]2[O-])s1 (centres unmarked) [Compound 57] | 10
[O-][S+]1CCON=C1c1ccc(Cl)s1 (centres unmarked) [Compound 60] | 25
[O-][S+]1CCON=C1c1cc2ccccc2s1 (centres unmarked) [Compound 87] | 2.5
N#Cc1ccc(C2=NOCCS2(=O)=O)s1 [Compound 58] | 10

----------
# Test system: Aureobasidium pullulans
# method: Wood preservative efficacy against fungi, agar plate colony diameter
# Format: cell-based
# Set-up: key: 1=25%, 2=50%, 3=75%, 4=100% of untreated growth; lower better
# conditionLabel: Test dosage 10 ppm, Table 6A
parameterMeasured: Score of fungicidal activity, A. PULLULANS

CC(=O)c1ccc(C2=NOCC[S+]2[O-])cc1 (stereo not shown) [Compound 14] | 4

----------
# Test system: Cladosporium resinae
# method: Wood preservative efficacy against fungi, agar plate colony diameter
# Format: cell-based
# conditionLabel: Test dosage 10 ppm, Table 6A
As shown below, each of these compounds has a reported Score of fungicidal activity, CL RESINAE value.
parameterMeasured: Score of fungicidal activity, CL RESINAE

[O-][S+]1CCON=C1c1ccc(Cl)c(Cl)c1 (stereo not shown) [Compound 4] | 0
CC(=O)c1ccc(C2=NOCC[S+]2[O-])cc1 (stereo not shown) [Compound 14] | 0

----------
# Test system: Aureobasidium pullulans
# method: Control of molds and blue stain fungi in stick test (beech sticks)
# conditionLabel: minimum concentration producing a score less than or equal to 1; dosages 50-1000 ppm
// values below are reported Threshold value in stick test, AUREOBASIDIUM PULLULANS
parameterMeasured: Threshold value in stick test, AUREOBASIDIUM PULLULANS

C[S+]1CCON=C1c1cc(Cl)cc(Cl)c1 (centres unmarked) | 250-500 ppm
[O-][S+]1CCON=C1c1ccc(Cl)c(Cl)c1 (centres unmarked) | 500-1000 ppm
C[S+]1CCON=C1c1ccc(C(F)(F)F)cc1 (centres unmarked) | 250-500 ppm
C[S+]1CCON=C1c1ccc(Cl)cc1 (centres unmarked) | >1000 ppm
[O-][S+]1CCON=C1c1cccs1 (centres unmarked) | 250-500 ppm

----------
# Test system: blue-stain fungi and molds
# method: Activity against blue-stain fungi and molds in a stick test (threshold concentrations)
# conditionLabel: Sclerophoma; minimum concentration to obtain score 0; beech sticks, 22° C., 90% relative humidity
Threshold concentration (ppm), Sclerophoma, score 0 overview
parameterMeasured: Threshold concentration (ppm), Sclerophoma, score 0

CCOC(=O)c1ccc(C2=NOCC[S+]2[O-])s1 (stereo not shown) [Compound 54] | 100
CC1CS(=O)(=O)C(c2cccs2)=NO1 (stereo not shown) [Compound 51] | 100
[O-][S+]1CCON=C1c1ccc(Cl)s1 (stereo not shown) [Compound 60] | 100
O=S1(=O)CCON=C1c1cccs1 [Compound 34] | 100
[O-][S+]1CCON=C1c1cccs1 (stereo not shown) [Compound 8] | 100
[O-][S+]1CCON=C1c1nc2ccccc2o1 (stereo not shown) [Compound 81] | 250
O=S1(=O)CCON=C1c1ccc(Cl)s1 [Compound 61] | 100
[O-][S+]1CCON=C1c1nc2ccccc2s1 (stereo not shown) [Compound 85] | 100
CC1C[S+]([O-])C(c2cccs2)=NO1 (stereo not shown) [Compound 50] | 100
[O-][S+]1CCON=C1c1cc2ccccc2s1 (stereo not shown) [Compound 87] | 100
N#Cc1ccc(C2=NOCCS2(=O)=O)s1 [Compound 58] | 100
Cc1ccc2oc(C3=NOCC[S+]3[O-])nc2c1 (stereo not shown) [Compound 89] | 250
N#Cc1ccc(C2=NOCC[S+]2[O-])s1 (stereo not shown) [Compound 57] | 100

----------
# System: Coriolus versicolor
# method: Wood preservative efficacy against fungi, agar plate colony diameter
# Format: cell-based
# conditionLabel: Test dosage 10 ppm, Table 6A
parameterMeasured: Score of fungicidal activity, C. VERSICLOR

C[S+]1CCON=C1c1ccc(Cl)cc1 (stereo not shown) | 0
[O-][S+]1CCON=C1c1cccs1 (stereo not shown) | 0
[O-][S+]1CCON=C1c1ccc(Cl)c(Cl)c1 (stereo not shown) | 0

----------
# System: mixed spore suspension: Aureobasidium pullulans, Aspergillus amstelodami, Ceratocystis pilifera, Cladosporium sp., Penicillium sp., Sclerophomas entoxylina …
# method: Control of molds and sapstain fungi in mini-board test
# Set-up: key: 0: Free of fungal growth; 1: Traces of fungal growth; 2: Little fungal growth; 3: Moderate fungal growth; 4: Vigorous to maximum growth (all surfaces covered with fungal growth)
# conditionLabel: 2500 ppm; 3 week incubation
# key: entry, value: Surface score of treated mini-boards, 3 week incubation, 2500 ppm
parameterMeasured: Surface score of treated mini-boards, 3 week incubation, 2500 ppm

O=S1(=O)CCON=C1c1cccs1 [Compound 34] | 0
O=S1(=O)CCON=C1c1ccsc1 [Compound 78] | 0.2
Cc1ccsc1C1=NOCCS1(=O)=O [Compound 37] | 0
[O-][S+]1CCON=C1c1cc(Br)cs1 (centres unmarked) [Compound 41] | 0.2
[O-][S+]1CCON=C1c1ccc(Br)s1 (centres unmarked) [Compound 36] | 0

----------
Collected Score of bactericidal activity, B. cereus mycoides values appear next to each entry.
# Tested on: Bacillus cereus mycoides
# Type: cell-based
# Design: scale not given here
# conditionLabel: 100 ppm in tryptose agar
parameterMeasured: Score of bactericidal activity, B. cereus mycoides

C[S+]1CCON=C1c1cccc(C(F)(F)F)c1 (stereo not shown) [Compound 13] | 2
[O-][S+]1CCON=C1c1cccs1 (stereo not shown) [Compound 8] | 2
C[S+]1CCON=C1c1c(Cl)cccc1Cl (stereo not shown) [Compound 15] | 1
C[S+]1CCON=C1c1ccccc1 (stereo not shown) [Compound 17] | 0
CCOc1ccc(C2=NOCC[S+]2C)cc1 (stereo not shown) [Compound 28] | 2
CC(=O)c1ccc(C2=NOCC[S+]2[O-])cc1 (stereo not shown) [Compound 14] | 2
COC(=O)c1cccc(C2=NOCC[S+]2[O-])c1 (stereo not shown) [Compound 26] | 2
C[S+]1CCON=C1c1ccc(Cl)cc1 (stereo not shown) [Compound 1] | 2
CCOC(=O)c1ccc(C2=NOCC[S+]2[O-])cc1 (stereo not shown) [Compound 22] | 2
[O-][S+]1CCON=C1c1ccc(Cl)c(Cl)c1 (stereo not shown) [Compound 4] | 2
C[S+]1CCON=C1c1ccc(Cl)cc1Cl (stereo not shown) [Compound 2] | 2
C[S+]1CCON=C1c1ccc(C(F)(F)F)cc1 (stereo not shown) [Compound 25] | 2
C[S+]1CCON=C1c1cc(Cl)cc(Cl)c1 (stereo not shown) [Compound 19] | 2
